The measurements presented in this section are drawn from paper PMC10052977.

measurement kind: melting point

Exercise: I'd like to know its melting point. The compound in question is O=C(O)CCC(=O)NCCCc1ccccc1 [Compound 8]
Solution: 94 to 95 °C

Exercise: // repeat for Cl.Cl.S=C(NCCCNCCCCCCCCCCNCCCNC(=S)NC(c1ccccc1)c1ccccc1)NC(c1ccccc1)c1ccccc1 [Compound 6e] and report
Solution: 114 to 115 °C

Exercise: // repeat for Cl.Cl.S=C(NCCCNCCCCCCCCNCCCNC(=S)NC(c1ccccc1)c1ccccc1)NC(c1ccccc1)c1ccccc1 [Compound 6d] and report
Solution: 113 to 115 °C

----------
Listing of entries alongside the reported IC50 at 20 h.
- protocol notes: Cytotoxicity assay (resazurin)
- Type: cell-based, human
- run conditions: human; HEK293 cells; mean (n = 2); highest dose tested 32 μg/mL; read-out: Cytotoxicity (concentration of compound at 50% cytotoxicity, IC50)

Exercise: I'd like to know its IC50 at 20 h. The compound in question is O=C(CCC(=O)NCCCc1ccccc1)NCCCNCCCCNCCCNC(=O)CCC(=O)NCCCc1ccccc1.O=C(O)C(F)(F)F.O=C(O)C(F)(F)F [Compound 14a]
Solution: > 37 µM

Exercise: // repeat for O=C(CCc1ccccc1)NCCCNCCCCCCNCCCNC(=O)CCc1ccccc1.O=C(O)C(F)(F)F.O=C(O)C(F)(F)F [Compound 13b] and report
Solution: > 44.3 µM

Could you now look at the following compound, please?
Exercise: I'd like to know its IC50 at 20 h. The compound in question is O=C(NCCCNCCCCCCCCNCCCNC(=O)C(c1ccccc1)(c1ccccc1)c1ccccc1)C(c1ccccc1)(c1ccccc1)c1ccccc1.O=C(O)C(F)(F)F.O=C(O)C(F)(F)F [Compound 17d]
Solution: ≤ 0.243 µM

----------
- Test system: human red blood cells
- protocol notes: Hemolytic assay
- Format: cell-based
- run conditions: mean (n = 2)
- Protocol: Human whole blood was washed three times with 3 volumes of 0.9% NaCl and then resuspended in same to a concentration of 0.5 × 10^8 cells/mL, as determined by manual cell count in a Neubauer hemocytometer. The washed cells were then added to the 384-well compound-containing plates for a final volume of 50 μL. […] Hemolysis was determined by measuring the supernatant absorbance at […] (OD405). The absorbance was measured using a Tecan M1000 Pro monochromator plate reader. […]
measurement kind: Hemolysis (HC10, concentration at 10% hemolytic activity)

Known results for compounds:
Exercise: I'd like to know its Hemolysis (HC10, concentration at 10% hemolytic activity). The compound in question is O=C(NCCCNCCCCCCCCCCNCCCNC(=O)C(c1ccccc1)(c1ccccc1)c1ccccc1)C(c1ccccc1)(c1ccccc1)c1ccccc1.O=C(O)C(F)(F)F.O=C(O)C(F)(F)F [Compound 17e]
Solution: ≤0.234 µM

Exercise: // repeat for O=C(CCC(=O)NCCCc1ccccc1)NCCCNCCCCCCCCCCNCCCNC(=O)CCC(=O)NCCCc1ccccc1.O=C(O)C(F)(F)F.O=C(O)C(F)(F)F [Compound 14e] and report
Solution: >33.7 µM

Exercise: // repeat for Cl.Cl.S=C(NCCCNCCCCCCCCCCCCNCCCNC(=S)NC(c1ccccc1)c1ccccc1)NC(c1ccccc1)c1ccccc1 [Compound 6f] and report
Solution: >38.2 µM

Could you now look at the following compound, please?
Exercise: I'd like to know its Hemolysis (HC10, concentration at 10% hemolytic activity). The compound in question is O=C(CCC(=O)NCCC(c1ccccc1)c1ccccc1)NCCCNCCCCCCNCCCNC(=O)CCC(=O)NCCC(c1ccccc1)c1ccccc1 [Compound 16b]
Solution: >30.6 µM
